Hello, the source for this data is PubChem BioAssay, in case you need it.

assayNotes: polyglutamine-triggered caspase-3 activation inhibitors, cell-based (AID 1583)
conditionParameters: polyglutamine-induced caspase-3 activation, cell assay; stronger effect = higher value; concentration not given here
experimentalReadout: inhibition (%)
State the answer as a number, implicitly in %.

Which inhibition is reported for this compound? CCCCC(=O)O[C@H]1CCC2C3CCc4cc(O)ccc4C3CC[C@@]21C (stereo partly specified) 15.8

Which inhibition is reported for this compound? C[C@]12C=CC(=O)C=C1CCC1C3C[C@@H](O)[C@](O)(C(=O)CO)[C@@]3(C)C[C@H](O)[C@@]12F (stereo partly specified) -13.4

Which inhibition is reported for this compound? CNC(C)[C@@H]1CC[C@@H](N)[C@@H](OC2[C@@H](N)C[C@@H](N)[C@H](OC3OC[C@](C)(O)[C@H](NC)[C@H]3O)[C@H]2O)O1 (stereo partly specified) -0.7

Which inhibition is reported for this compound? C[C@]12CCC3c4ccc(O)cc4CCC3C1C[C@@H](O)[C@@H]2O (stereo partly specified) -10.9

Which inhibition is reported for this compound? CC[C@H](C)C(=O)O[C@H]1CCC=C2C=C[C@H](C)C(CCC3C[C@@H](O)CC(=O)O3)[C@H]21 (stereo partly specified) -3.44

Which inhibition is reported for this compound? NC(N)=N/N=C\c1c(Cl)cccc1Cl -8.15

Which inhibition is reported for this compound? CC(=O)[C@@]1(O)CCC2C3C[C@H](C)C4=CC(=O)C=CC4(C)[C@@]3(F)[C@@H](O)C[C@@]21C (stereo partly specified) 8.98

Which inhibition is reported for this compound? OC(c1cc(C(F)(F)F)nc2c(C(F)(F)F)cccc12)C1CCCCN1 (stereo unspecified) 50.1

Which inhibition is reported for this compound? CC(C)[N+]1(C)C2CC[C@@H]1CC(OC(=O)C(CO)c1ccccc1)C2 (stereo partly specified) 3.73

Which inhibition is reported for this compound? CC(=O)OCC(=O)[C@@]1(O)CCC2C3CCC4=CC(=O)C=CC4(C)C3[C@@H](O)C[C@@]21C (stereo partly specified) 26

Which inhibition is reported for this compound? CC[C@@H](C(=O)[C@@H](C)[C@@H](O)[C@H](C)[C@@H]1O[C@@H]([C@@H](CC)C(=O)O)CC[C@@H]1C)[C@H]1OC2(C=C[C@@H](O)[C@]3(CC[C@@](C)([C@H]4CC[C@](O)(CC)[C@H](C)O4)O3)O2)[C@H](C)C[C@@H]1C (stereo partly specified) 40.3

Which inhibition is reported for this compound? CCCC(=O)O[C@]1(C(=O)CO)CCC2[C@@H]3CCC4=CC(=O)CC[C@]4(C)C3[C@@H](O)C[C@@]21C (stereo partly specified) -18.1

Which inhibition is reported for this compound? Cc1onc(-c2ccccc2)c1C(=O)NC1C(=O)N2[C@@H]1SC(C)(C)[C@@H]2C(=O)O (stereo partly specified) 7.8

Which inhibition is reported for this compound? CC1(C)S[C@@H]2[C@H](NC(=O)COc3ccccc3)C(=O)N2[C@H]1C(=O)O 4.98

Which inhibition is reported for this compound? NC(COCc1ccccc1)C(=O)O (stereo unspecified) 2.09

Which inhibition is reported for this compound? CC[C@H]1OC(=O)[C@H](C)[C@@H](O[C@H]2C[C@@](C)(OC)[C@@H](O)[C@H](C)O2)[C@H](C)[C@@H](O[C@@H]2O[C@H](C)C[C@H](N(C)C)[C@H]2O)[C@](C)(O)C[C@@H](C)CN(C)[C@H](C)[C@@H](O)[C@]1(C)O 6.36

Which inhibition is reported for this compound? C=CC[C@@H]1/C=C(\C)C[C@H](C)C[C@H](OC)[C@H]2O[C@@](O)(C(=O)C(=O)N3CCCC[C@H]3C(=O)O[C@H](/C(C)=C/[C@@H]3CC[C@@H](O)[C@H](OC)C3)[C@H](C)[C@@H](O)CC1=O)[C@H](C)C[C@@H]2OC -0.04

Which inhibition is reported for this compound? CN[C@@H]1[C@H](OC2[C@H](O[C@H]3[C@H](O)[C@@H](O)[C@H](N=C(N)N)[C@@H](O)[C@@H]3N=C(N)N)O[C@@H](C)[C@]2(O)C=O)O[C@@H](CO)[C@H](O)[C@H]1O (stereo partly specified) 11

Which inhibition is reported for this compound? CC1=C2C(=CO[C@H](C)[C@H]2C)C(=O)C(C(=O)O)=C1O 1.38

Which inhibition is reported for this compound? CCC[C@@H]1C[C@@H](C(=O)N[C@H]([C@H]2O[C@H](SC)[C@H](O)[C@@H](O)[C@H]2O)[C@H](C)O)N(C)C1 3.68

Which inhibition is reported for this compound? CCN1CCN(C(=O)NC(C(=O)N[C@@H]2C(=O)N3[C@@H]2SC(C)(C)[C@@H]3C(=O)O)c2ccccc2)C(=O)C1=O (stereo partly specified) -12.4

Which inhibition is reported for this compound? O=c1[nH]c(=O)n(C2C[C@@H](O)[C@@H](CO)O2)cc1F (stereo partly specified) -9.47

Which inhibition is reported for this compound? CN(C)CCCO[C@H]1[C@@H](C(O)CO)OC2OC(C)(C)O[C@@H]21 (stereo partly specified) 13.5

Which inhibition is reported for this compound? C[C@@H]1CC2C3CCC4=CC(=O)C=C[C@]4(C)[C@@]3(F)[C@@H](O)C[C@]2(C)[C@@]1(O)C(=O)CO (stereo partly specified) -20.4

Which inhibition is reported for this compound? CN1C2CC(OC(=O)[C@H](CO)c3ccccc3)C[C@H]1[C@H]1OC21 (stereo partly specified) 15.1

Which inhibition is reported for this compound? CC(=O)OCC(=O)[C@@]12OC3(CCCC3)O[C@@H]1CC1C3CCC4=CC(=O)C=C[C@]4(C)[C@@]3(F)[C@@H](O)C[C@@]12C (stereo partly specified) 11.1

Which inhibition is reported for this compound? C#C[C@]1(OC(C)=O)CCC2C3CCC4=CC(=O)CC[C@@H]4C3CC[C@@]21C (stereo partly specified) 17.5

Which inhibition is reported for this compound? Cc1c(C)c2c(c(C)c1O)CCC(C)(CCCC(C)CCCC(C)CCCC(C)C)O2 (stereo unspecified) 25.1

Which inhibition is reported for this compound? CC1OC1P(=O)(O)O (stereo unspecified) -3.29

Which inhibition is reported for this compound? CCN1CCN(C(=O)NC(C(=O)NC2C(=O)N3C(C(=O)O)=C(CSc4nnnn4C)CSC23)c2ccc(O)cc2)C(=O)C1=O (stereo unspecified) 16.1

Which inhibition is reported for this compound? CC(=O)OCC(=O)[C@@]1(O)[C@H](OC(C)=O)CC2C3CCC4=CC(=O)C=C[C@]4(C)[C@@]3(F)[C@@H](O)C[C@@]21C (stereo partly specified) -24

* * *

System: F380Y/beta1
assayNotes: modulators of BK channel variants, profiling panel, selectivity assay, cell-based, U2OS BacMam, thallium flux, beta subunits (AID 1259406);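 note: initial slope of Thallos dye fluorescence rise after thallium is added; log ratio against the mean of 0.3% DMSO vehicle wells on the same plate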
conditionParameters: at 30 µM
Could you please report measured log fold change Tl+ flux for the items listed next?
When you answer, write just the number.

Which log fold change Tl+ flux is reported for this compound? Cc1cc(NC(=S)N2CCCCCC2)ccc1Br 0.0387

Which log fold change Tl+ flux is reported for this compound? COc1ccc(CCNC(=O)c2ccccc2NC(=O)c2ccccc2C)cc1OC -0.0452

Which log fold change Tl+ flux is reported for this compound? Cc1cc(C(=O)ON=C(N)c2ccc([N+](=O)[O-])o2)no1 0.0208

Which log fold change Tl+ flux is reported for this compound? FC(F)(F)c1ccc(-c2csc(C3(c4ccc(Cl)cc4Cl)CC3)n2)cc1 0.000911

Which log fold change Tl+ flux is reported for this compound? CC(COc1ccccc1Cc1ccccc1)N1CCCCC1 (stereo unspecified) 0.236

Which log fold change Tl+ flux is reported for this compound? CC(=O)C1=C(C)Nc2ccccc2S1 -0.00709

* * *

tgt: L-lactate dehydrogenase (Plasmodium falciparum (isolate CDC / Honduras)) (UniProt Q27743)
Sequence (Q27743 whole entry, looked up): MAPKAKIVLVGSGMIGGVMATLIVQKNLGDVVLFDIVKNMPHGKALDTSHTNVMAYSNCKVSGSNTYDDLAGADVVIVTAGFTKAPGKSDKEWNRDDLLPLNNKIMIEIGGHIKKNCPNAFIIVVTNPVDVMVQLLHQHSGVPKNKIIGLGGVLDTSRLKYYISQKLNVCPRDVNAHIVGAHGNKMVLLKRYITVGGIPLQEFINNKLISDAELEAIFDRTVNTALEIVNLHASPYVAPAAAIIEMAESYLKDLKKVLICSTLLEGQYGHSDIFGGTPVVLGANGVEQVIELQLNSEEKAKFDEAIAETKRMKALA
assayNotes: PfLDH activity inhibition – cell lysate, 3D7 strain, counter-screen for P. falciparum growth inhibition project (AID 2304);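 note: 0% = vehicle and 100% = reference inhibitor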
conditionParameters: P. falciparum 3D7 crude extract, LDH APAD/NBT absorbance; at 2 µM; stronger effect = higher value
experimentalReadout: inhibition (%)
State the answer as a number, implicitly in %.

Which inhibition is reported for this molecule? Cn1nc(C(=O)N2CCC(c3[nH]ncc3Cc3ccccc3)CC2)c2ccccc2c1=O -2

Which inhibition is reported for this molecule? COc1cc(Nc2nccc(-c3c(-c4cccc(NC(=O)c5c(F)cccc5F)c4)nn4ncccc34)n2)cc(OC)c1OC 1

Which inhibition is reported for this molecule? COc1ccc(Nc2ccnc3cc4ccccc4cc23)cc1 3

Which inhibition is reported for this molecule? COc1ccc(-c2ccc([N+](=O)[O-])cc2C(=O)NCC(C)Oc2ccc(C(F)(F)F)cc2)cc1 (stereo unspecified) 5

Which inhibition is reported for this molecule? COc1ccc(-c2cnc3[nH]cc(-c4ccncc4)c3c2)cc1OC -2

Which inhibition is reported for this molecule? Cc1nc(Cl)c2c(-c3ccccc3)csc2n1 1

Which inhibition is reported for this molecule? Oc1cccc(-c2cnc3ccc(NCc4ccc(F)cc4)nn23)c1 2

Which inhibition is reported for this molecule? CCCN1CCN(CCNc2c3ccccc3nc3ccccc23)CC1 3

Which inhibition is reported for this molecule? CCc1c(CCNCC/C=C/CCNCCc2ccc(OC)c(OC)c2CC)ccc(OC)c1OC 3

Which inhibition is reported for this molecule? CN1CCN(c2ccc(Nc3nccc(-c4cnn5ncccc45)n3)cc2Cl)CC1 0

Which inhibition is reported for this molecule? O=C(Nc1cccc(-c2nn3ncccc3c2-c2ccnc(Nc3ccccc3)n2)c1)c1c(F)cccc1F 0

Which inhibition is reported for this molecule? COc1ccc(C2NCCc3c2[nH]c2ccccc32)cc1CN1CCN(c2ccc(F)cc2)CC1 (stereo unspecified) -1

Which inhibition is reported for this molecule? Cc1cccc2[nH]c(-c3ccc(-c4ccc(NC(=O)NCc5ccc(F)cc5)cc4)cc3)nc12 -3

Which inhibition is reported for this molecule? O=C(NC1CCC(N2CCC(c3ccccc3C(F)(F)F)CC2)CC1)c1cc2ccccc2[nH]1 (stereo unspecified) -5

Which inhibition is reported for this molecule? CCCCN1CC[C@@H](CCC(O)c2cc(OCCC)nc3ccc(OC)cc23)[C@@H](CC)C1 (stereo partly specified) -4

Which inhibition is reported for this molecule? Cn1c(=O)c(-c2c(Cl)cccc2Cl)cc2cnc(Nc3ccc(N4CCOCC4)cc3)nc21 4

Which inhibition is reported for this molecule? Cc1[nH]c(C)c(-c2ccc(Oc3cc(Cl)cc(Cl)c3)cc2)c(=O)c1Cl -7

Which inhibition is reported for this molecule? CCOc1cc(Cc2cnc(N)nc2N)cc(Br)c1OC 5

Which inhibition is reported for this molecule? Fc1ccc2c(NN=CC=Cc3ccccc3)ccnc2c1 -3

Which inhibition is reported for this molecule? O=C(NC1CCN(Cc2ccccc2O)C1)c1ccc(Cl)c(Cl)c1 (stereo unspecified) -1

Which inhibition is reported for this molecule? Cc1cc(=O)[nH]c(-n2nc(C)cc2NC(=O)C2(c3ccc(Cl)cc3)CCCC2)n1 5
